Parameter Tm: see the listing below.
- experiment-description: melting temperature; UV melt of duplexes
- condition-context: sodium 1.02 M; strand 2 µM
assay-metric: Tm (°C)

substance	result-value
AGCAGTCCGCCACACCCTGA+TCAGGGTGTGGCGGACTGCT ((((((((((((((((((((+))))))))))))))))))))	78.5
CGTACTAGCGTTGGTCATGG+CCATGACCAACGCTAGTACG ((((((((((((((((((((+))))))))))))))))))))	71.1
GCCCCTCCACTGGCCGACGGCAGCAGGCTC+GAGCCTGCTGCCGTCGGCCAGTGGAGGGGC ((((((((((((((((((((((((((((((+))))))))))))))))))))))))))))))	87.7
CTGGTCTGGATCTGAGAACTTCAGG+CCTGAAGTTCTCAGATCCAGACCAG (((((((((((((((((((((((((+)))))))))))))))))))))))))	75.6
CCCTGCACTTTAACTGAATTGTTTA+TAAACAATTCAGTTAAAGTGCAGGG (((((((((((((((((((((((((+)))))))))))))))))))))))))	72.5
TTCCAAAAGGAGTTATGAGTTGCGA+TCGCAACTCATAACTCCTTTTGGAA (((((((((((((((((((((((((+)))))))))))))))))))))))))	73.8
CCATCATTGTGTCTACCTCA+TGAGGTAGACACAATGATGG ((((((((((((((((((((+))))))))))))))))))))	68.5
CAGTGAGACAGCAATGGTCG+CGACCATTGCTGTCTCACTG ((((((((((((((((((((+))))))))))))))))))))	72.5
ACGCCCACAGGATTAGGCTGGCCCACATTG+CAATGTGGGCCAGCCTAATCCTGTGGGCGT ((((((((((((((((((((((((((((((+))))))))))))))))))))))))))))))	84
TAACCATACTGAATACCTTTTGACG+CGTCAAAAGGTATTCAGTATGGTTA (((((((((((((((((((((((((+)))))))))))))))))))))))))	71.3
ATGCAATGCTACATATTCGC+GCGAATATGTAGCATTGCAT ((((((((((((((((((((+))))))))))))))))))))	68.9
AAAGGTGTCGCGGAGAGTCGTGCTG+CAGCACGACTCTCCGCGACACCTTT (((((((((((((((((((((((((+)))))))))))))))))))))))))	82.4
TAGTATATCGCAGCATCATACAGGC+GCCTGTATGATGCTGCGATATACTA (((((((((((((((((((((((((+)))))))))))))))))))))))))	75
